Biological target: T1, Human c-Met-Flis-Fc ECD (human)
T1 construct: also called human c-Met extracellular domain (ECD)-Fc-Flis fusion; Human cMet-ECD-Fc-Flis
T1 sequence (chain, as listed by the source limits assumed): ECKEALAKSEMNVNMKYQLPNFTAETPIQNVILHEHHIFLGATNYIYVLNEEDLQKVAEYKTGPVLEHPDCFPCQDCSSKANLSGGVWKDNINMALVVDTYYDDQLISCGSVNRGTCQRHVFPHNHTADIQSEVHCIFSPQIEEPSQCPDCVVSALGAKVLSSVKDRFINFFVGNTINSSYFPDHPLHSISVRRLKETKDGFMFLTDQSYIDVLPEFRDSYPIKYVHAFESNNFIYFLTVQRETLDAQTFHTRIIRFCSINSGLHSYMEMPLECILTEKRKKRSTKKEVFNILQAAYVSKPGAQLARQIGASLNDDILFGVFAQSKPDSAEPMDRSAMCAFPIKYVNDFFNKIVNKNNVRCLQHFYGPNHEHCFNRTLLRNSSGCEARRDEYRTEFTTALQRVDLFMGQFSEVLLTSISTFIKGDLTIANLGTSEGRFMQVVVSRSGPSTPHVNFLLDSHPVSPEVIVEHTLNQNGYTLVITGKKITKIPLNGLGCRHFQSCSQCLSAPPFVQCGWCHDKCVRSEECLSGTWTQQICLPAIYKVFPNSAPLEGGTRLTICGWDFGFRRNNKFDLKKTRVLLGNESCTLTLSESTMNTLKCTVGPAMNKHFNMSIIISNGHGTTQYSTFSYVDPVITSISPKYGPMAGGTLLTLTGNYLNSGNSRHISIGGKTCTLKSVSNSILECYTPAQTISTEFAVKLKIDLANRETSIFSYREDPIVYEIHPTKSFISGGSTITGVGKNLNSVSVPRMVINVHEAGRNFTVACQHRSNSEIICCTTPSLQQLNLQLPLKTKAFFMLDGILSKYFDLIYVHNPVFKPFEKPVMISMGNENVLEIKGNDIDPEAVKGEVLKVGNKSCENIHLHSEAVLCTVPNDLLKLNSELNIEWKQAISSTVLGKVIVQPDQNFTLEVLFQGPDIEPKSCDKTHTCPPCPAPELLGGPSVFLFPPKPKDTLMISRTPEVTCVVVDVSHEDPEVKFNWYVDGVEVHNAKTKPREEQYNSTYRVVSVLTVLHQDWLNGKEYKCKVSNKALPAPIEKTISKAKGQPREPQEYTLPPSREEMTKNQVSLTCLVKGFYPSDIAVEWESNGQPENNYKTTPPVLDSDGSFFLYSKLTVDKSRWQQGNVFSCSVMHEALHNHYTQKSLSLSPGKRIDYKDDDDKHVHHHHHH
Experiment: ELISA, coated ECD-Fc, antibody 0.002 ng/mL
Each item that follows carries a reported Average A450 nm.

binder | Average A450 nm, A450 nm
C8-H241 (antibody, human IgG2, kappa, V domains shown, Called IgG4, kappa; also called Mab C8-H241) VH: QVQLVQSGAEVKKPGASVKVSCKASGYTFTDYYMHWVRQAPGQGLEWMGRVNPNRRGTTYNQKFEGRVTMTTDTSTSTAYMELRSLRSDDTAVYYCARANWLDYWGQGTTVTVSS VL: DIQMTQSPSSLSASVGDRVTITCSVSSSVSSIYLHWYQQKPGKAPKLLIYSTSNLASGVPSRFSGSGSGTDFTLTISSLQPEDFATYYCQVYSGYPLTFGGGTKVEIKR | 0.317
D11-8B8 (antibody, human IgG2, kappa, V domains shown, Human engineered IgG2, kappa; expressed in HEK293 EBNA cells; also called Mab D11-8B8) VH: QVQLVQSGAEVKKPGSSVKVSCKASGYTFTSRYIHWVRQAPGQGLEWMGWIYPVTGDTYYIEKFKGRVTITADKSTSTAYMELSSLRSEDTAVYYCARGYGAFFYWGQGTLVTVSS VL: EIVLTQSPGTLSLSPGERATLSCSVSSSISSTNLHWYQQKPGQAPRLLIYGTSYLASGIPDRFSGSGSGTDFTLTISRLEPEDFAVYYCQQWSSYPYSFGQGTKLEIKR | 0.299
D11-C27G3 (antibody, human IgG2, kappa, V domains shown, Human engineered IgG2, kappa; also called D11-27G3) VH: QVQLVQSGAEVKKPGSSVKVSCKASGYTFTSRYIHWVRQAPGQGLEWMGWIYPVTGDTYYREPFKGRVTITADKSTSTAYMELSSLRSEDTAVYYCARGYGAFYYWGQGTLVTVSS VL: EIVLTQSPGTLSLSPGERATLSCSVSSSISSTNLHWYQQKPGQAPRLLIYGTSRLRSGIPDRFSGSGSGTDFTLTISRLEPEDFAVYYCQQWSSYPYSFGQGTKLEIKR | 0.271
D11-S17Y (antibody, human IgG2, kappa, V domains shown, Human engineered IgG2, kappa) VH: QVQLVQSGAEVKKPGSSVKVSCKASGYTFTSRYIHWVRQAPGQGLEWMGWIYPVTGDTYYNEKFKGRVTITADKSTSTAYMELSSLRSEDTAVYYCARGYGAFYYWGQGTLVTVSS VL: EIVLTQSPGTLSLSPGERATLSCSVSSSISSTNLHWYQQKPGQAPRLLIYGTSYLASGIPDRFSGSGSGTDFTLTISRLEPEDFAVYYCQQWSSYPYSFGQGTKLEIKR | 0.309
